Each recorded value in this set is attributed to paper PMC6214909.

Below: a set of entries, each annotated with reported Unmethylated fraction.
- testedOn: NTMT2 (Homo sapiens)
- Construct: DNA encoding human NTMT2 (residues 58–278) was amplified by PCR; SUMO (His8-SUMO of the pET28-MKH8SUMO vector, with TEV site) (N, cleaved yes); made in house; host or cells: Escherichia coli BL21 (DE3)
- testDescription: MALDI-MS methyltransferase activity assay, NTMT2
- Type: biochemical
- cond: 2 μM NTMT2, 10 μM peptide, 200 μM SAM, 25 mM Tris–HCl pH 7.5, 50 mM KCl, 37 °C, overnight
Ends that are not written are not given here.

>  <substance>
MPKRIA [synthetic XPKRIA hexapeptide substrate, X = M]

>  <unitOfMeasurement>
%

>  <Unmethylated fraction>
58.55

$$$$
>  <substance>
SPKRIA [SPKRIA]

>  <unitOfMeasurement>
%

>  <Unmethylated fraction>
53.61

$$$$
>  <substance>
FPKRIA [synthetic XPKRIA hexapeptide substrate, X = F]

>  <unitOfMeasurement>
%

>  <Unmethylated fraction>
49.78

$$$$
>  <substance>
TPKRIA [synthetic XPKRIA hexapeptide substrate, X = T]

>  <unitOfMeasurement>
%

>  <Unmethylated fraction>
100.00

$$$$
>  <substance>
EPKRIA [synthetic XPKRIA hexapeptide substrate, X = E]

>  <unitOfMeasurement>
%

>  <Unmethylated fraction>
100.00

$$$$

----------
- Tested on: NTMT2-N89G mutant
- testDescription: MALDI-MS methyltransferase activity assay, NTMT2-N89G mutant
- Type: biochemical, human
- cond: NTMT2-N89G under the same conditions (2 μM enzyme, 10 μM peptide, 200 μM SAM, pH 7.5, 37 °C, overnight)
Please enter rule met where Mono-methylated fraction is greater than or equal to 20%, and rule not met where it is lower.

>  <substance>
GPKRIA [synthetic XPKRIA hexapeptide substrate, X = G]

>  <discreteLabel>
rule not met

$$$$
>  <substance>
QPKRIA [synthetic XPKRIA hexapeptide substrate, X = Q]

>  <discreteLabel>
rule met

$$$$
>  <substance>
RPKRIA [synthetic XPKRIA hexapeptide substrate, X = R]

>  <discreteLabel>
rule met

$$$$
>  <substance>
PPKRIA [synthetic XPKRIA hexapeptide substrate, X = P]

>  <discreteLabel>
rule met

$$$$

----------
Below, each entry is listed alongside its reported Unmethylated fraction.
- Tested on: NTMT1
- testDescription: MALDI-MS methyltransferase activity assay, NTMT1
- Format: biochemical, human
- cond: 2 μM NTMT1, 10 μM peptide, 200 μM SAM, 25 mM Tris–HCl pH 7.5, 50 mM KCl, 37 °C, overnight
measurementKind: Unmethylated fraction

>  <substance>
KPKRIA [synthetic XPKRIA hexapeptide substrate, X = K]

>  <testedOn>
NTMT1

>  <measurementKind>
Unmethylated fraction

>  <recordedValue>
0.00%

$$$$
>  <substance>
CPKRIA [synthetic XPKRIA hexapeptide substrate, X = C]

>  <testedOn>
NTMT1

>  <measurementKind>
Unmethylated fraction

>  <recordedValue>
27.51%

$$$$
>  <substance>
VPKRIA [synthetic XPKRIA hexapeptide substrate, X = V]

>  <testedOn>
NTMT1

>  <measurementKind>
Unmethylated fraction

>  <recordedValue>
0.00%

$$$$
>  <substance>
QPKRIA [synthetic XPKRIA hexapeptide substrate, X = Q]

>  <testedOn>
NTMT1

>  <measurementKind>
Unmethylated fraction

>  <recordedValue>
0.00%

$$$$
>  <substance>
PPKRIA [synthetic XPKRIA hexapeptide substrate, X = P]

>  <testedOn>
NTMT1

>  <measurementKind>
Unmethylated fraction

>  <recordedValue>
0.00%

$$$$

----------
- testedOn: NTMT2 (Homo sapiens, UniProt Q5VVY1)
- Construct: DNA encoding human NTMT2 (residues 58–278) was amplified by PCR; SUMO (His8-SUMO of the pET28-MKH8SUMO vector, with TEV site) (N, cleaved yes); made in house; host or cells: Escherichia coli BL21 (DE3)
- Sequence (Q5VVY1 58-278): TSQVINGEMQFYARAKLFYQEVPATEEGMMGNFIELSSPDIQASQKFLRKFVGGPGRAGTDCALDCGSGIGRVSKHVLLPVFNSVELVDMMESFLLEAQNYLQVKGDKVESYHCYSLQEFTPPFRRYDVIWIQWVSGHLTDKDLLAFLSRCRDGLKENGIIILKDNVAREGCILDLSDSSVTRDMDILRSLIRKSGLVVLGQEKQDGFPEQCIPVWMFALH
- testDescription: Isothermal titration calorimetry, wild-type NTMT2 and peptide
- Format: binding
- cond: read-out: Kd
Ends that are not written are not given here.
measurementKind: Kd (µM)

>  <substance>
SPKRIA [SPKRIA]

>  <measurementKind>
Kd

>  <unitOfMeasurement>
µM

>  <recordedValue>
18

$$$$

----------
Entries and their measured Di-methylated fraction follow.
- Tested on: NTMT1
- testDescription: MALDI-MS methyltransferase activity assay, NTMT1
- Type: biochemical, human
- cond: 2 μM NTMT1, 10 μM peptide, 200 μM SAM, 25 mM Tris–HCl pH 7.5, 50 mM KCl, 37 °C, overnight

>  <substance>
EPKRIA [synthetic XPKRIA hexapeptide substrate, X = E]

>  <testedOn>
NTMT1

>  <unitOfMeasurement>
%

>  <Di-methylated fraction>
0.00

$$$$
>  <substance>
TPKRIA [synthetic XPKRIA hexapeptide substrate, X = T]

>  <testedOn>
NTMT1

>  <unitOfMeasurement>
%

>  <Di-methylated fraction>
33.51

$$$$
>  <substance>
WPKRIA [synthetic XPKRIA hexapeptide substrate, X = W]

>  <testedOn>
NTMT1

>  <unitOfMeasurement>
%

>  <Di-methylated fraction>
17.46

$$$$
>  <substance>
VPKRIA [synthetic XPKRIA hexapeptide substrate, X = V]

>  <testedOn>
NTMT1

>  <unitOfMeasurement>
%

>  <Di-methylated fraction>
45.70

$$$$
>  <substance>
LPKRIA [synthetic XPKRIA hexapeptide substrate, X = L]

>  <testedOn>
NTMT1

>  <unitOfMeasurement>
%

>  <Di-methylated fraction>
70.78

$$$$
>  <substance>
HPKRIA [synthetic XPKRIA hexapeptide substrate, X = H]

>  <testedOn>
NTMT1

>  <unitOfMeasurement>
%

>  <Di-methylated fraction>
100.00

$$$$
>  <substance>
KPKRIA [synthetic XPKRIA hexapeptide substrate, X = K]

>  <testedOn>
NTMT1

>  <unitOfMeasurement>
%

>  <Di-methylated fraction>
96.14

$$$$
>  <substance>
GPKRIA [synthetic XPKRIA hexapeptide substrate, X = G]

>  <testedOn>
NTMT1

>  <unitOfMeasurement>
%

>  <Di-methylated fraction>
0.00

$$$$
>  <substance>
DPKRIA [synthetic XPKRIA hexapeptide substrate, X = D]

>  <testedOn>
NTMT1

>  <unitOfMeasurement>
%

>  <Di-methylated fraction>
0.00

$$$$
>  <substance>
CPKRIA [synthetic XPKRIA hexapeptide substrate, X = C]

>  <testedOn>
NTMT1

>  <unitOfMeasurement>
%

>  <Di-methylated fraction>
44.61

$$$$
>  <substance>
MPKRIA [synthetic XPKRIA hexapeptide substrate, X = M]

>  <testedOn>
NTMT1

>  <unitOfMeasurement>
%

>  <Di-methylated fraction>
91.26

$$$$
>  <substance>
APKRIA [synthetic XPKRIA hexapeptide substrate, X = A]

>  <testedOn>
NTMT1

>  <unitOfMeasurement>
%

>  <Di-methylated fraction>
0.00

$$$$
>  <substance>
YPKRIA [synthetic XPKRIA hexapeptide substrate, X = Y]

>  <testedOn>
NTMT1

>  <unitOfMeasurement>
%

>  <Di-methylated fraction>
100.00

$$$$
>  <substance>
FPKRIA [synthetic XPKRIA hexapeptide substrate, X = F]

>  <testedOn>
NTMT1

>  <unitOfMeasurement>
%

>  <Di-methylated fraction>
97.34

$$$$

----------
- testedOn: NTMT2 (Homo sapiens)
- Construct: DNA encoding human NTMT2 (residues 58–278) was amplified by PCR; SUMO (His8-SUMO of the pET28-MKH8SUMO vector, with TEV site) (N, cleaved yes); made in house; host or cells: Escherichia coli BL21 (DE3)
- testDescription: MALDI-MS methyltransferase activity assay, NTMT2
- Type: biochemical
- cond: 2 μM NTMT2, 10 μM peptide, 200 μM SAM, 25 mM Tris–HCl pH 7.5, 50 mM KCl, 37 °C, overnight
Di-methylated fraction: recorded values

>  <substance>
FPKRIA [synthetic XPKRIA hexapeptide substrate, X = F]

>  <unitOfMeasurement>
%

>  <Di-methylated fraction>
0.00

$$$$
>  <substance>
DPKRIA [synthetic XPKRIA hexapeptide substrate, X = D]

>  <unitOfMeasurement>
%

>  <Di-methylated fraction>
0.00

$$$$
>  <substance>
LPKRIA [synthetic XPKRIA hexapeptide substrate, X = L]

>  <unitOfMeasurement>
%

>  <Di-methylated fraction>
0.00

$$$$
>  <substance>
NPKRIA [synthetic XPKRIA hexapeptide substrate, X = N]

>  <unitOfMeasurement>
%

>  <Di-methylated fraction>
0.00

$$$$
>  <substance>
IPKRIA [synthetic XPKRIA hexapeptide substrate, X = I]

>  <unitOfMeasurement>
%

>  <Di-methylated fraction>
0.00

$$$$
>  <substance>
PPKRIA [synthetic XPKRIA hexapeptide substrate, X = P]

>  <unitOfMeasurement>
%

>  <Di-methylated fraction>
10.19

$$$$
>  <substance>
YPKRIA [synthetic XPKRIA hexapeptide substrate, X = Y]

>  <unitOfMeasurement>
%

>  <Di-methylated fraction>
0.00

$$$$
>  <substance>
GPKRIA [synthetic XPKRIA hexapeptide substrate, X = G]

>  <unitOfMeasurement>
%

>  <Di-methylated fraction>
20.14

$$$$
>  <substance>
APKRIA [synthetic XPKRIA hexapeptide substrate, X = A]

>  <unitOfMeasurement>
%

>  <Di-methylated fraction>
0.00

$$$$
